- TARGET ENTITY: bovine PDE6 (Bos taurus, UniProt P11541+P23439)
- Sequence (P11541 2-859 limits assumed): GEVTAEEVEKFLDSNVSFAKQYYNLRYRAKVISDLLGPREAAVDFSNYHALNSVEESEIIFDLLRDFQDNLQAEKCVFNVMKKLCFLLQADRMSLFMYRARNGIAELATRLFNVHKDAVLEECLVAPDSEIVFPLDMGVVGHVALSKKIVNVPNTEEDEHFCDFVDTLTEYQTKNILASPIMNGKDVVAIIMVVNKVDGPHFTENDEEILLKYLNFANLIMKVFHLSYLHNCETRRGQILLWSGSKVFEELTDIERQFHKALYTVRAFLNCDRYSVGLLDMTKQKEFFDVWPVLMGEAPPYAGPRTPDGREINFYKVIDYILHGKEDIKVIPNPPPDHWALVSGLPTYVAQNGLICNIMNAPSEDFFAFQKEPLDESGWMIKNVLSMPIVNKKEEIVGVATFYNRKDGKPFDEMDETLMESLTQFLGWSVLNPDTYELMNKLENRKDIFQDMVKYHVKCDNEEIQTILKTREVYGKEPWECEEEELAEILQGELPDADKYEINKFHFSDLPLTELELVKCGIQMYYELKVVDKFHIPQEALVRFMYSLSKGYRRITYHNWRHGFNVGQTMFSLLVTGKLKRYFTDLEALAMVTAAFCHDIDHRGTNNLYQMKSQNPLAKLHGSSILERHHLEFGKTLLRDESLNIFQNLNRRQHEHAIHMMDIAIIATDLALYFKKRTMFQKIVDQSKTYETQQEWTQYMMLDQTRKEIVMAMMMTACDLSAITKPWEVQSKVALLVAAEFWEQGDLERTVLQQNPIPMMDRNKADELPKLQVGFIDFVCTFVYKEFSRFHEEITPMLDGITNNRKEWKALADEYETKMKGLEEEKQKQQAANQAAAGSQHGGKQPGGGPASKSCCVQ
- Sequence (P23439 2-853 limits assumed): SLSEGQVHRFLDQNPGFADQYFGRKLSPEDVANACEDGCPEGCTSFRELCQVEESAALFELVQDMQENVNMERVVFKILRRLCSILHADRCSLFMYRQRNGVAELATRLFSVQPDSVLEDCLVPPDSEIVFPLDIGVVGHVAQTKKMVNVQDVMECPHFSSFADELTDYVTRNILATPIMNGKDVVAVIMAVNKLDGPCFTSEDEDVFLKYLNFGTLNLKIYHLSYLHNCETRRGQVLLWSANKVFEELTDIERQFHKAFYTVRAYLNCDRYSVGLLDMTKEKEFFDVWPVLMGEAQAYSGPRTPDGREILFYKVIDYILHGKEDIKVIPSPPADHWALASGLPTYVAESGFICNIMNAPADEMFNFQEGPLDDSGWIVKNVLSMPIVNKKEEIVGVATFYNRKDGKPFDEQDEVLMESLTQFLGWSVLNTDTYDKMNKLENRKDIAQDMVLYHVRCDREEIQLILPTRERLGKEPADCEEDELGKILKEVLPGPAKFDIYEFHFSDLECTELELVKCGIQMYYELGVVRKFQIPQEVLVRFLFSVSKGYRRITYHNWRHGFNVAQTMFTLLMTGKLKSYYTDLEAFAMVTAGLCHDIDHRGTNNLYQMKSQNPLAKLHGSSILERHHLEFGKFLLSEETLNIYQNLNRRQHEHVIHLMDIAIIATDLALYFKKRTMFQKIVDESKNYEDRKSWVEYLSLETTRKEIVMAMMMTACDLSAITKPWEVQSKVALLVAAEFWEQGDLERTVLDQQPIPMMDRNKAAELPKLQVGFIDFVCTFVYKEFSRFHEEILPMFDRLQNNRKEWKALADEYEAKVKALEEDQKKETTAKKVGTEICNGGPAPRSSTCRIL
- PROTOCOL: PDE selectivity assay, PDE6
MEASURED METRIC: IC50

get_value(item= CCOC(C(=O)c1ccc(-c2cc(OC)c(Cl)c(OC)c2)o1)c1ccc(-c2nnc(C)s2)cc1 (racemic) [Compound 1001] , readout=IC50) returns > 3000 nM
